The reported measurements were obtained from PubChem BioAssay (NCATS).

system: W2; assay: qHTS profiling for inhibitors of Plasmodium falciparum proliferation (AID 504749); note: nearly all actives have a fitted effect of over 60% in size; settings: P. falciparum in erythrocytes, SYBR Green DNA, 72 h; series mostly up to 12.8 µM
Results filed as inconclusive are left out. Active and inactive are the calls of the source. Calls come from the whole dose curve; as a rule, active = well fitted inhibition curve with a large enough effect; inconclusive = small, poorly fitted or top-dose-only effect; inactive = flat fitted curve, though single readings scatter.
Outcomes: T = active, F = inactive

> print(dat)
                                   molecule  class
1  C[C@]12CC[C@H](O)CC1=CCC1C2CC[C@]2(C)C(=O)CC[C@@H]12 (stereo partly drawn)      F
2  COc1cc2c(cc1OC)[C@@]13CCN4CC5=CCOC6CC(=O)N2C1[C@H]6[C@@H]5C[C@@H]43 (stereo partly drawn)      F
3  C[N+]1([O-])[C@@H]2CC(OC(=O)[C@@H](CO)c3ccccc3)C[C@@H]1[C@H]1O[C@H]12 (stereo partly drawn)      F
4  C=CC1CN2CCC1CC2C(OC(=O)OCC)c1ccnc2ccc(OC)cc12 (stereo not drawn)      T
5                    CNC[C@H](O)c1ccc(O)cc1      F
6  COc1ccc2c(c1OC)CN1CCc3cc4c(cc3[C@H]1C2)OCO4      T
7  Oc1ccc2c3c1O[C@H]1[C@@H](O)CC[C@@]4(O)C(C2)N(CC2CCC2)CCC314 (stereo partly drawn)      F
8  CC(=O)O[C@H]1CC[C@@]2(C)C(=CC[C@@H]3[C@H]2CC[C@]2(C)C(=O)CC[C@H]32)C1      F

---

# max response values compiled below
target: Peroxisome proliferator-activated receptor alpha (Homo sapiens) (UniProt Q07869); assay: qHTS assay for small molecule agonists of the peroxisome proliferator-activated receptor alpha (PPARalpha) signaling pathway (AID 651778); conditions: PathHunter PPARalpha complementation, chemiluminescence, 6 h; hits give high values; note: % of control where 0% means no effect
Sequence (Q07869 whole entry, looked up): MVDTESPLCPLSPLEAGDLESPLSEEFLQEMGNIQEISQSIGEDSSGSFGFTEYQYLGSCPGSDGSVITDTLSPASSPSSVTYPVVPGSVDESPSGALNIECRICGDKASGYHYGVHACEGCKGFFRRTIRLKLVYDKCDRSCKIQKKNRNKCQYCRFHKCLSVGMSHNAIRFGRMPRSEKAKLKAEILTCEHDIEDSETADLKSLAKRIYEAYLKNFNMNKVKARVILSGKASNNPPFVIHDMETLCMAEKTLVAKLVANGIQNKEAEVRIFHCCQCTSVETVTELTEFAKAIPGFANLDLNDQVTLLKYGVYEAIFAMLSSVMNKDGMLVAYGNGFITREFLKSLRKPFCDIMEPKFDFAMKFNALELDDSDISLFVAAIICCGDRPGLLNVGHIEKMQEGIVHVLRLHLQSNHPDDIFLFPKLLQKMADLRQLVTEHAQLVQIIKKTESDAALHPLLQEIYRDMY
metric-name: max response (%)

> print(dat)
                                   molecule   metric.name  value.reported
 1                           CCCCCCCC(=O)Cl  max response            1.85
 2                        N#Cc1c(Cl)cccc1Cl  max response           0.511
 3           O=C1C(Cl)=C(Cl)C(=O)C(Cl)=C1Cl  max response           -6.11
 4               CC(C)Nc1nc(Cl)nc(NC(C)C)n1  max response           -0.58
 5                              CCCSC(=O)Cl  max response         -0.0229
 6                         C=CCc1ccc(OC)cc1  max response           0.294
 7                                 CC(Cl)Cl  max response            4.62
 8                           Cc1cccc(C#N)c1  max response            -0.3
 9                                C=CC(=C)C  max response            4.78
10                                    ClCBr  max response           -7.14
11                 CCC(=O)Nc1ccc(Cl)c(Cl)c1  max response          -0.456
12          OCC(Br)CBr (stereo unspecified)  max response           -5.97
13                              Nc1ccccc1Cl  max response           -2.66
14                                C=CC(C)=O  max response           -1.26
15                    C/C=C/c1ccc2c(c1)OCO2  max response           -6.18
16  C=C(C)C(=O)OCC1CO1 (stereo unspecified)  max response           -4.83
